Catalogue of superoxide response (% of plate) values
# test-description: retest of yeast aging ROS inhibitors – cherry picked compounds, confirmation (AID 434994);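 also: cells aged with compound for 7 days at 30 degrees C before staining; 100% equals mean DHE fluorescence of all compound wells on the plate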
# condition-details: S. cerevisiae aging, superoxide DHE fluorescence; at 10 µM; active compounds read low
This is one part of the list.
Form entry: value (%) — number only.

[[record]]
compound = "O=[N+]([O-])c1ccc2c(c1)Nc1nc3ccccc3nc1N2"
unit_abbrev = "%"
recorded_result = 82.5

[[record]]
compound = "COc1ccc(CCNC(=O)c2ccccc2-c2ccccc2C(=O)O)cc1OC"
unit_abbrev = "%"
recorded_result = 108

[[record]]
compound = "O=C(CN1CCN(c2ccccn2)CC1)Nc1ccc(Br)cc1"
unit_abbrev = "%"
recorded_result = 111

[[record]]
compound = "CC(=O)C[C@@H](O)CC(=O)[C@H]1OC(=O)CCCCCCc2ccccc21"
unit_abbrev = "%"
recorded_result = 103

[[record]]
compound = "O=C(O)C1CCCN1S(=O)(=O)c1ccc(Br)cc1 (stereo unspecified)"
unit_abbrev = "%"
recorded_result = 105


Now for the compound whose superoxide response (% of plate) we want.
Enquiry: State, in one line, measured superoxide response (% of plate) of COC(=O)CNC(=O)c1ccc(OC2CCN(C(=O)C3CC3)CC2)cc1
Return: 103
